Data origin: patent US10513521B2

target: UniProtKB O00238; assay: TR-FRET enzymatic ALK kinase assay, ALK6
Sequence (O00238 14-502): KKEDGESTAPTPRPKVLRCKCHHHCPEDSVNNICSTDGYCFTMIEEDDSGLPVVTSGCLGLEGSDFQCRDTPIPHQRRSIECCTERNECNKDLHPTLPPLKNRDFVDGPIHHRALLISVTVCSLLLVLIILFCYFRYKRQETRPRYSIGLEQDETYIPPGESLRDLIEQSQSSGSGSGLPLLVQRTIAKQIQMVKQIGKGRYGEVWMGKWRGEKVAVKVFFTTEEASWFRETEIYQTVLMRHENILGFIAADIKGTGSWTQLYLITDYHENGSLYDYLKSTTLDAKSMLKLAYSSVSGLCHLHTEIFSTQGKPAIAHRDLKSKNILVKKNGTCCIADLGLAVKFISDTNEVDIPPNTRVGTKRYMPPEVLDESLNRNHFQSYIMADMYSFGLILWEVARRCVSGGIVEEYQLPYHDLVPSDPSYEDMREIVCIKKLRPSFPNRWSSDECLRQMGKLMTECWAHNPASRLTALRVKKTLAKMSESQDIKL
pIC50: −log10 of the molar value.
experimental readout: pIC50

Example entries begin here.
| molecule | target entity | pIC50 |
| --- | --- | --- |
| c1cc(-c2cc[nH]n2)cc(-c2cnn3cc(-c4ccc(CCN5CCCCC5)cc4)cnc23)c1 [Compound 90] | UniProtKB O00238 | < 5.00 |
| NC(c1cccc(-c2cnn3cc(-c4ccc(OC5(CN6CCC(O)CC6)CC5)cc4)cnc23)c1)C(F)(F)F (stereo not shown) [Compound 180] | UniProtKB O00238 | < 5.00 |
| CC(C)(CN1CCCCC1)Oc1ccc(-c2cnc3c(-c4ccc(C(N)=O)c5ccccc45)cnn3c2)cc1 [Compound 17] | UniProtKB O00238 | 5.91 |
| CS(=O)(=O)c1cccc(-c2cnn3cc(-c4ccc(CCN5CCC(O)CC5)cc4)cnc23)c1 [Compound 140] | UniProtKB O00238 | < 5.00 |
| C[C@@H]1CNC[C@H](C)N1c1ccc(-c2cnc3c(-c4cc(N)cc5ccccc45)cnn3c2)cc1 [Compound 58] | UniProtKB O00238 | 6.02 |
| CS(=O)(=O)c1cccc(-c2cnn3cc(-c4ccc(C5CCCNC5)cc4)cnc23)c1 (stereo not shown) [Compound 139] | UniProtKB O00238 | < 5.00 |

Shift focus to the following entry.
Qu. Entry Cc1ccc([S+](=O)([O-])C(F)(F)F)cc1-c1cnn2cc(-c3ccc(N4[C@H](C)CNC[C@@H]4C)cc3)cnc12 [Compound 107] : reported pIC50 = ?
Ans. < 5.00
